The measured values listed here are drawn from ChEMBL document CHEMBL1155461.

Assay: Aqueous solubility of the compound
Format: physicochemical
Conditions: aqueous medium
Result type: solubility (µg/mL)
# output: bare number, implied unit µg/mL

Task: Provide one value: measured solubility of COc1cc(C(=O)NC[C@H](NS(=O)(=O)c2ccccc2)C(=O)O)ccc1N1CCC(NC2=NCCCN2)CC1
Output: 1300

----------
Test: Half life in rat
Assay type: ADME, organism-based
Conditions: in vivo
Result type: half-life (min)
# output: bare number, implied unit min

Task: Provide one value: measured half-life of COc1cc(C(=O)NC[C@H](NS(=O)(=O)c2ccccc2)C(=O)O)ccc1N1CCC(NC2=NCCCN2)CC1
Output: 46

----------
Molecular target: Prostaglandin E2 receptor EP4 subtype (Mus musculus)
Sequence (P32240 whole entry): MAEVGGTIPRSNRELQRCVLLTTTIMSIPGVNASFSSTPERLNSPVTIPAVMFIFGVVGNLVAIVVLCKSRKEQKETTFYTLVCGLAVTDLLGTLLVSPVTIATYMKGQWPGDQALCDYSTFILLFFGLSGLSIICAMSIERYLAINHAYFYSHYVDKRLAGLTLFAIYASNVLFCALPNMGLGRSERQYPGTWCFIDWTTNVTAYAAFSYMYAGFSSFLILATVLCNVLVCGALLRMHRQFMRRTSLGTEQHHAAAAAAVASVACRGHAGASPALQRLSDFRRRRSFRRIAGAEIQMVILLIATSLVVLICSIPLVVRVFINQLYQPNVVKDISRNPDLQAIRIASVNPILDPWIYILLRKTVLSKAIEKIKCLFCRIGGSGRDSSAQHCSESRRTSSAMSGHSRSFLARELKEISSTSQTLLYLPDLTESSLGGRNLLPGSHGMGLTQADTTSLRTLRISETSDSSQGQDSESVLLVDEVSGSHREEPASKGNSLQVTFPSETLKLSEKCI
Experiment: Agonist activity at mouse EP4 receptor expressed in CHO cells assessed as cAMP production
Result type: pEC50
Units for pEC50: none; it is -log10 of a concentration expressed in mol/L.

Task: Provide one value: measured pEC50 of COCc1cccc(C[C@H](O)/C=C/[C@H]2[C@H](O)CC(=O)[C@@H]2CCSCCCC(=O)OC)c1
Output: 8.80
